assay: growth inhibition of DIPG cells – cell-based, MIPE5.0 library, qHTS (AID 1347068); conditions: SU-DIPG-XXV viability;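 for IC50: cells exposed to compound for 48 hours before viability readout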
Inconclusive results are not listed. Calls of active or inactive are those of the source. No cut-off is given here; in the data, nearly all actives have IC50 up to about 30 µM.
Outcomes you can answer with include only these: active, inactive

Assay result, entry CN(C)C(=O)[C@H](O)[C@H](Cc1ccccc1)NC(=O)c1cc2cc(Cl)ccc2[nH]1 — outcome?
inactive

Assay result, entry O=C1Nc2nc(-c3c(O)cccc3OCC3CC3)cc([C@@H]3CCCNC3)c2CO1 — outcome?
active

Assay result, entry COc1cc2c(cc1OC)CN(CCc1ccc(NC(=O)c3cccc4c(=O)c5cccc(OC)c5[nH]c34)cc1)CC2 — outcome?
inactive

Assay result, entry Cc1ccc(NS(=O)(=O)c2ccc3c(c2)C2C=CCC2C(c2ccc(C(=O)O)cc2)N3)cc1C (centres undefined) — outcome?
inactive

Assay result, entry CCC[C@@H](C=O)NC(=O)[C@H](CC(C)C)NC(=O)[C@H](CC(C)C)NC(=O)OCc1ccccc1 — outcome?
active

Assay result, entry O=c1ncn2nc(Sc3ccc(F)cc3F)ccc2c1-c1c(Cl)cccc1Cl — outcome?
inactive

Assay result, entry NS(=O)(=O)c1ccc(Cc2c(-c3cccc(-c4ccccc4)c3)nn(-c3nc(C(=O)O)cs3)c2CC2CC2)cc1 — outcome?
inactive

Assay result, entry Cc1cc(O)cc2c1[C@]1(C)CC[C@H]3C(C)(C)CCC[C@]3(C)[C@H]1C2 — outcome?
inactive

Assay result, entry CN1CC[C@@H](NC(=O)Nc2ccc(C#N)cc2)C[C@@H]1c1nc2ccccc2[nH]1 — outcome?
inactive
